- assay system: Muscarinic acetylcholine receptor M4 (Homo sapiens, UniProt P08173)
- Sequence (P08173 whole entry): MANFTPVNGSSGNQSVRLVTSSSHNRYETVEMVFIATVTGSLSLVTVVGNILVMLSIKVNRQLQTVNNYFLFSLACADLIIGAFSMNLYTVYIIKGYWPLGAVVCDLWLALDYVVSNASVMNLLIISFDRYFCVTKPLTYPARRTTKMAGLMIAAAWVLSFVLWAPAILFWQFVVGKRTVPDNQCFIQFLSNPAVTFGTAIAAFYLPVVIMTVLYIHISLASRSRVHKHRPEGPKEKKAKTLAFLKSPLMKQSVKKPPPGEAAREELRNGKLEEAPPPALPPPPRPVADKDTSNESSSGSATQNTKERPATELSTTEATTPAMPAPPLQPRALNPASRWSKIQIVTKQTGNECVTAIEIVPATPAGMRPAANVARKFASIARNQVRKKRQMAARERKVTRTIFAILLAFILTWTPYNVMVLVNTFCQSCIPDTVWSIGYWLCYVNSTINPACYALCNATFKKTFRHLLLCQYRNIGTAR
- Assay type: cell membranes, CHO-K1, Membrane
- details: read-out: Ki
Assign labels as follows, please: Satisfied for Ki below 100 nM; Not satisfied for Ki equal to or exceeding 100 nM.

stdin: Please state whether Ki is below 100 nM for CCN(CC)CCCC(C)Nc1c2ccc(Cl)cc2nc2ccc(OC)cc12 (stereo not drawn) [QUINACRINE]
stdout: Not satisfied

stdin: Please state whether Ki is below 100 nM for Clc1ccc(COC(Cn2ccnc2)c2ccc(Cl)cc2Cl)c(Cl)c1 (stereo not drawn) [MICONAZOLE]
stdout: Not satisfied

stdin: Please state whether Ki is below 100 nM for CN1CCN(C(c2ccccc2)c2ccccc2)CC1 [CYCLIZINE]
stdout: Not satisfied

stdin: Please state whether Ki is below 100 nM for CN1CCC(=C2c3ccccc3CC(=O)c3sccc32)CC1 [KETOTIFEN]
stdout: Not satisfied

stdin: Please state whether Ki is below 100 nM for CCCCCCCCNC(C)C(O)c1ccc(SC(C)C)cc1 (stereo not drawn) [SULOCTIDIL]
stdout: Not satisfied

Further cases:
stdin: Please state whether Ki is below 100 nM for CN(C)CCC=C1c2ccccc2CCc2ccccc21 [AMITRIPTYLINE]
stdout: Satisfied

stdin: Please state whether Ki is below 100 nM for N=C(N)c1ccc(OCCCCCOc2ccc(C(=N)N)cc2)cc1 [PENTAMIDINE]
stdout: Not satisfied

stdin: Please state whether Ki is below 100 nM for CN1CCCC(CN2c3ccccc3Sc3ccccc32)C1 (stereo not drawn) [MEPAZINE]
stdout: Satisfied
